- Test system: MDA-MB-231
- Assay Procedure: NCI tumour cell line growth inhibition, 48 h
Active and inactive are the calls of the source. Cut-off read from the data, not from the text of the source: active = GI50 up to about 1.1 µM and inactive = higher.
Measured GI50 by item

Given CCCCCCCCCCCCC/C=C/[C@@H](O)[C@H](COC1OC(CO)C(OC2OC(CO)C(O)C(OC3(C(=O)O)CC(O)C(NC(C)=O)C(C(O)C(O)CO)O3)C2O)C(O)C1O)N=[N+]=[N-] (some centres undefined) , respond with its GI50. > 100 µM (inactive)

# return recorded GI50 for entry Cc1cc(O)c2c(c1)C(=O)C=C(Br)C2=O 16.9 µM (inactive)

Next:
Query GI50 for O=C1c2c(Br)sc(Br)c2[C@H]2NC(=S)O[C@@H]12 17.9 µM (inactive)

Return reported GI50. Input compound: Cc1ccc(NC(=O)c2ccccc2C(=O)O)cc1C > 100 µM (inactive)

Each recorded value in this set is attributed to ChEMBL document CHEMBL1201862.
